- method summary: growth inhibitors of tim10-1 mutant yeast, primary screen, luminescence, uHTS (AID 463190);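 note: mutant grown at 25 °C; 0% = DMSO wells with yeast and 100% = wells holding no yeast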
- condition details: S. cerevisiae tim10-1 ts strain growth, BacTiter-Glo, 24 h; at 20 µM; hits give high values
Screen size: about 330,000 compounds; about 7,300 (2.2%) were called active. For the sample, actives were picked, then their nearest neighbours and some compounds at random.
measurement label: inhibition (%)
Just the number in %, nothing appended.

Some solved cases for reference:
Nc1nc(-c2sc3nc4c(cc3c2N)CCCC4)nc(N2CCOCC2)n1 ... 27.8
CN1CCN(S(=O)(=O)c2ccc(N3CCN(S(=O)(=O)c4cccs4)CC3)nc2)CC1 ... -3.27
Cc1[nH]n(-c2ccccc2)c(=O)c1CCOC(=O)c1ccc(C(F)(F)F)cc1 ... 16.7

Which inhibition value belongs to `Cc1cc(C)c(NC(=O)c2oc3ccccc3c2COc2ccccc2)c(C)c1` ?
17

----------
- method summary: growth inhibitors of tim10-1 mutant yeast, primary screen, luminescence, uHTS (AID 463190);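 note: mutant grown at 25 °C; 0% = DMSO wells with yeast and 100% = wells holding no yeast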
- condition details: S. cerevisiae tim10-1 ts strain growth, BacTiter-Glo, 24 h; at 20 µM; hits give high values
Screen size: about 330,000 compounds; about 7,300 (2.2%) were called active. The list comes from a sample in which actives are over-represented; it also holds close analogues and randomly drawn compounds.
measurement label: inhibition (%)
Just the number in %, nothing appended.

Which inhibition value belongs to CC(OC(=O)c1ccccc1N1C(=O)C2C3CCC(C3)C2C1=O)C(=O)c1ccccc1 (configuration not stated) ?
22.1

----------
- method summary: growth inhibitors of tim10-1 mutant yeast, primary screen, luminescence, uHTS (AID 463190);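 note: mutant grown at 25 °C; 0% = DMSO wells with yeast and 100% = wells holding no yeast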
- condition details: S. cerevisiae tim10-1 ts strain growth, BacTiter-Glo, 24 h; at 20 µM; hits give high values
The campaign covered roughly 330,000 compounds. About 7,300 (2.2%) were called active. The full list was thinned out, with actives kept by preference.
Recorded inhibition values for a group of compounds are listed next.
Just the number in %, nothing appended.

COc1ccc(C(=O)Nc2ccccc2C(=O)N/N=C/c2ccccc2OC)cc1 ... 66.7
COc1ccccc1C(=O)NC(=S)Nc1ccccc1N1CCCCC1 ... 41.9

Which inhibition value belongs to `CC(C)(CNC(=O)c1cc(=O)[nH]c2ccccc12)N1CCOCC1` ?
-7.73

Which inhibition value belongs to `O=C(COc1ccc(Cl)cc1)NC(=S)Nc1ccccc1N1CCOCC1` ?
4.3

Which inhibition value belongs to `COc1ccc(-n2c(=S)[nH]c3sc4c(c3c2=O)CCc2ccccc2-4)cc1` ?
6.58

Which inhibition value belongs to `CC(C)c1cc(C(N)=O)c(NC(=O)c2cccc(COc3ccc(Br)cc3)c2)s1` ?
40.9

Which inhibition value belongs to `Cc1ccc2cc(C#N)c(NCCNC(=S)NCCCN3CCOCC3)nc2c1` ?
-0.527

Which inhibition value belongs to `CCOC(=O)c1cc(C(C)C)sc1NC(=O)COC(=O)c1nccnc1N` ?
9.86

Which inhibition value belongs to `Cc1ccc(Oc2nc(-c3ccccn3)nc3ccccc23)cc1` ?
44.9

Which inhibition value belongs to `C=CCNC(=S)NNC(=O)COc1c(Cl)cc(Cl)cc1Cl` ?
37.3

Which inhibition value belongs to `CCc1ccc(C(=O)NC(=S)Nc2ccccc2N2CCOCC2)cc1` ?
40.2

Which inhibition value belongs to `Cc1cc(C(=O)NNC(=S)Nc2ccccc2C)cs1` ?
24

Which inhibition value belongs to CC(CNS(=O)(=O)c1ccc(Br)cc1)CN(C)C (stereo not given) ?
6.17

Which inhibition value belongs to `CCCc1cc(=O)[nH]c(SCc2cc(=O)oc3c(C)c(C)ccc23)n1` ?
10.3

Which inhibition value belongs to `Cc1cc(CNCc2c(C(=O)N(C)Cc3ccccc3)nc3ccccn23)nn1C` ?
10.5

Which inhibition value belongs to `CCOc1ccc(C(=O)NC2CCN(C(=O)Nc3ccccc3OC)CC2)cc1` ?
6.63

Which inhibition value belongs to `Cn1nnnc1SCC(=O)NNC(=O)c1ccc(Br)cc1` ?
0.63

Which inhibition value belongs to `CCN(CC)CCN(C(=O)c1cc(Cl)sc1Cl)c1nc2cc3c(cc2s1)OCO3` ?
36.6

Which inhibition value belongs to `COc1ccc(C2=NO[C@@H]3C(=O)N(Cc4ccccc4)C(=O)[C@H]23)cc1OC` ?
14.3

Which inhibition value belongs to `O=C(Nc1ccc2cn[nH]c2c1)c1ccc(S(=O)(=O)N2CCOCC2)cc1` ?
-2.72

Which inhibition value belongs to `COC(=O)CSc1snnc1-c1ccc(Cl)c(Cl)c1` ?
47.3

Which inhibition value belongs to `CCn1c(COc2c(C)cccc2C)nnc1SCc1nc2ccccc2c(=O)[nH]1` ?
40.2

Which inhibition value belongs to `CN(C)CCN(C(=O)C1CCCCC1)c1nc2cc3c(cc2s1)OCO3` ?
16.1

Which inhibition value belongs to `CCc1ccc2nc(N(CCCN(C)C)C(=O)c3ccc4c(c3)OCCO4)sc2c1` ?
16

Which inhibition value belongs to `Nc1ccc(-c2nnc(-c3ccccc3)o2)cc1` ?
-11.5

Which inhibition value belongs to `CCOc1ccc(OCc2cccc(C(=O)N(CC)CC)c2)cc1` ?
21.6

Which inhibition value belongs to `COC(=O)CSc1nnc(NC(=O)CCc2ccccc2)s1` ?
17.2
